This collection of values is drawn from patent US10882856B2.

As shown below, each of these compounds has a reported EC50 value.
ASSAYED_SYSTEM: IDO1 (Homo sapiens)
Sequence (P14902 whole entry): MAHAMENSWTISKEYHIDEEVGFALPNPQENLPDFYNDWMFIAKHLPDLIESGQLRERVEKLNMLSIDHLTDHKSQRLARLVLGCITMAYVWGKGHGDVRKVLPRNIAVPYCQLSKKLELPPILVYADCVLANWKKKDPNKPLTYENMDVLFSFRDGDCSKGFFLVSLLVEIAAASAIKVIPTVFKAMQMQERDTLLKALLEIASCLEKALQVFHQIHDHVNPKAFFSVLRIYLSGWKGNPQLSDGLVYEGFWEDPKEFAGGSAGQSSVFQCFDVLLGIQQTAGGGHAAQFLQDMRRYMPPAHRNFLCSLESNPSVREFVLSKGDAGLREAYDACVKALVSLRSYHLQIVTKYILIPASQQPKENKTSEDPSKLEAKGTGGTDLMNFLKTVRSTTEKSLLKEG
TEST_DETAILS: Hela cell-based IDO1 assay
ASSAY_CONTEXT: Hela cells
Report only the number, with the unit µM understood.

Request the reported EC50 associated with O[C@@H](c1c(C2CC2)ccc2cncn12)[C@H]1CC[C@H](c2ccnc3ccccc32)CC1 (single isomer, unassigned) [Example D140b]
1.75

Request: O[C@@H](c1c(C2CC2)ccc2cncn12)[C@H]1CC[C@H](c2ccc3ccccc3c2)CC1 (single isomer, unassigned) [Example D136b]
7.19

* * *

ASSAYED_SYSTEM: cellular TDO2 in HEK293-TDO2 cells (Homo sapiens)
Sequence (P48775 whole entry): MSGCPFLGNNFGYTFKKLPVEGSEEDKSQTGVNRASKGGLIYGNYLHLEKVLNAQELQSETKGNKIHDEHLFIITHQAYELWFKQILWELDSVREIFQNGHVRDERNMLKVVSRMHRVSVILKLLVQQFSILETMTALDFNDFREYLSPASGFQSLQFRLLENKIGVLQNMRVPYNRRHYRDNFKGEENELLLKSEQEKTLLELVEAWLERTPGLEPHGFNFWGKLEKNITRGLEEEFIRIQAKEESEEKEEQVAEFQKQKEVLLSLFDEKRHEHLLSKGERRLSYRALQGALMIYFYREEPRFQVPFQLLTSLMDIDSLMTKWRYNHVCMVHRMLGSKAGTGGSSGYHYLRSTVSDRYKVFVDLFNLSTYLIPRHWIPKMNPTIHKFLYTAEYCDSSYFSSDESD
TEST_DETAILS: 293-TDO2 cell-based assay (Kyn colorimetric)
ASSAY_CONTEXT: 48 hours of incubation
pEC50: −log10 of the molar value.
EXPERIMENTAL_ENDPOINT: pEC50

Use these answered entries as a reference point.
- COMPOUND: "Cc1ccc([C@H]2CC[C@H]([C@@H](O)c3c(C4CC4)ccn4cncc34)CC2)cc1 (single isomer, unassigned) [Example C110b]"
  RECORDED_MEASUREMENT: "< 5.00"
- COMPOUND: "OC(c1c(C2CC2)ccc2cncn12)C1CCN(c2ccccc2)CC1 (centres unmarked)"
  RECORDED_MEASUREMENT: "< 5.00"
- COMPOUND: "COc1ccc([C@H]2CC[C@H]([C@@H](O)c3c(C4CC4)ccn4cncc34)CC2)cc1 [Example C101b]"
  RECORDED_MEASUREMENT: "< 5.00"
- COMPOUND: "OC(c1c(C2CC2)ccc2cncn12)C1CCC(c2ccnc3c(F)cccc23)CC1 (centres unmarked)"
  RECORDED_MEASUREMENT: "< 5.00"
- COMPOUND: "OC(c1c(C2CC2)ccc2cncn12)[C@H]1CC[C@H](c2ccc(F)cc2Cl)CC1 (single isomer, unassigned) [Example D130a]"
  RECORDED_MEASUREMENT: "< 5.00"
- COMPOUND: "O=C(O)c1ccc([C@H]2CC[C@H]([C@@H](O)c3c(C4CC4)ccc4cncn34)CC2)cc1 (single isomer, unassigned) [Example D111b]"
  RECORDED_MEASUREMENT: "< 5.00"
- COMPOUND: "O[C@H](c1c(C2CC2)ccn2cncc12)[C@H]1CC[C@H](c2cccc3ncccc32)CC1 (single isomer, unassigned) [Example C126a]"
  RECORDED_MEASUREMENT: "< 5.00"
- COMPOUND: "OC(c1c(C2CC2)ccc2cncn12)C1CCC(c2ccc(OC3CCOCC3)cc2)CC1 (centres unmarked)"
  RECORDED_MEASUREMENT: "< 5.00"

Now take the following compound into account.
Form field - read-out: pEC50; system: cellular TDO2 in HEK293-TDO2 cells (Homo sapiens); submitted item: OC(c1c(C2CC2)ccc2cncn12)C1CCC(c2cc(F)cc(F)c2)CC1 (centres unmarked)
< 5.00
